So I've got a bunch of compounds here, and I need their pIC50 values.
tested.target: FAP-expressing human WI-38 fibroblasts (Homo sapiens, UniProt Q12884)
Construct: FAP-expressing human WI-38 fibroblasts (ECACC) were cultured in EMEM; host or cells: WI-38 human fibroblasts
Sequence (Q12884 whole entry): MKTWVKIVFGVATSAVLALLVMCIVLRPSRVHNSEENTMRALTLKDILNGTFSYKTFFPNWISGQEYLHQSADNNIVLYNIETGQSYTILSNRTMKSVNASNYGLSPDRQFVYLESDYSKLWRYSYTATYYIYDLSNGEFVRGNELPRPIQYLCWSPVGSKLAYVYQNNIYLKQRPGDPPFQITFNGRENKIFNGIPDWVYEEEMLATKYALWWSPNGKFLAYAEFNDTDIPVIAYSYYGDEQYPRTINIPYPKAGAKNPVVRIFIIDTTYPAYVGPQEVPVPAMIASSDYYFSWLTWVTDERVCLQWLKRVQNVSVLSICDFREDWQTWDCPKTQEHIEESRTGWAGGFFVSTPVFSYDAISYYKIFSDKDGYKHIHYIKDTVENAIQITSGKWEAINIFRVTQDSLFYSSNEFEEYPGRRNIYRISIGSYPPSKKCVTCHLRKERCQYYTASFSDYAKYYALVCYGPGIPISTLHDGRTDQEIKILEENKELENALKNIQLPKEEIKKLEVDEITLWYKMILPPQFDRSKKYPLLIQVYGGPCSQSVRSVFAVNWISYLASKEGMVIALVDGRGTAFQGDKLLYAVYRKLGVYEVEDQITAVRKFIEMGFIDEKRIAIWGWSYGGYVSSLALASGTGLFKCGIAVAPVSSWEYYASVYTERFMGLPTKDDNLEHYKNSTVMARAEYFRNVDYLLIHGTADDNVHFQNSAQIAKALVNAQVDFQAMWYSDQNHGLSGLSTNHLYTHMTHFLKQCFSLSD
test.name: Competitive FACS binding assay
experimental.context: pIC50 Category (FACS), competition with 3 nM Cy5-labeled compound, 4° C., 1 hour
pIC50: −log10 of the molar value. Numbered stars: 1 amine (or outer) side, 2 acyl side, 3 side chain; on linkers, the order of the positions; unused ones are H or OH. Bridge positions count the residues as written; N and C are the ends. Square brackets hold non-standard residues; d marks the D form. Peptide text beside a SMILES is read from it. * marks the point of attachment. X24 = NCCNCC(CNCCN)C(=O)N[C@@H](CCC(=O)NC[C@H](O)[C@@H](O)[C@H](O)[C@H](O)CO)C(=O)NCCCOCCOCCOCCCN*; mXylylene = c1cc(C[*:1])cc(C[*:2])c1; Suc = O=C(CCC(=O)[*:2])[*:1]; Nle = CCCC[C@H](N)C(=O)O

Some compounds with known pIC50 results, for comparison:
1. CCCCCC(=O)N[C@H]1CSCc2cc(CSCCNC(=O)CN3CCN4CCN(CC(=O)O)CCN(CC3)CC(=O)[O][Zn][O]C(=O)C4)cc(c2)CSC[C@@H](C(=O)O)NC(=O)[C@H](Cc2ccccc2)NC(=O)[C@H](CCC(N)=O)NC(=O)[C@H]([C@@H](C)O)NC(=O)[C@@H]2CCCN2C(=O)[C@@H]2CCCN2C1 : > 8.00
2. CCCCCC(=O)N[C@H]1CSCc2cc(CSCCNC(=O)CN3CCN4CCN(CC(=O)O)CCN(CC3)CC(=O)[O][Cu][O]C(=O)C4)cc(c2)CSC[C@@H](C(=O)O)NC(=O)[C@H](Cc2ccccc2)NC(=O)[C@H](CCC(N)=O)NC(=O)[C@H]([C@@H](C)O)NC(=O)[C@@H]2CCCN2C(=O)[C@@H]2CCCN2C1 : > 8.00
3. CCCCCC(=O)N[C@H]1CSCc2cccc(c2)CSC[C@@H](C(=O)O)NC(=O)[C@H](Cc2ccccc2)NC(=O)[C@H](CCC(N)=O)NC(=O)[C@H]([C@@H](C)O)NC(=O)[C@@H]2CCCN2C(=O)[C@@H]2CCCN2C1=O : 7.10 to 8.00
4. CCCC[C@H](NC(=O)CCC(=O)NCCCOCCOCCOCCCNC(=O)[C@H](CCC(=O)NC[C@H](O)[C@@H](O)[C@H](O)[C@H](O)CO)NC(=O)C(CNCCN)CNCCN)C(=O)N[C@H]1CSCc2cccc(c2)CSC[C@@H](C(=O)O)NC(=O)[C@H](Cc2ccccc2)NC(=O)[C@H](CCC(=O)O)NC(=O)[C@H]([C@@H](C)O)NC(=O)[C@@H]2CCCN2C(=O)[C@@H]2CCCN2C1=O [3BP-4246] ({X24-Suc}-[Nle]CPPTEFC-OH; linker 2-8 via mXylylene) : 7.10 to 8.00

State the recorded pIC50 for every item in the following list.
1. CCCCCC(=O)N[C@H]1CSCc2cc(CSCCNC(=O)CCC(=O)NCCCOCCOCCOCCCNC(=O)CCP(=O)(O)CN3CCN(CP(=O)(O)CO)CCN(CP(=O)(O)CO)CC3)cc(c2)CSC[C@@H](C(=O)O)NC(=O)[C@H](Cc2ccccc2)NC(=O)[C@H](CCC(N)=O)NC(=O)[C@H]([C@@H](C)O)NC(=O)[C@@H]2CCCN2C(=O)[C@@H]2CCCN2C1=O
2. CCCC[C@H](NC(=O)CCC(=O)NCCCOCCOCCOCCCNC(=O)C(CNCCN)CNCCN)C(=O)N[C@H]1CSCc2cccc(c2)CSC[C@@H](C(=O)O)NC(=O)[C@H](Cc2ccccc2)NC(=O)[C@H](CCC(N)=O)NC(=O)[C@H]([C@@H](C)O)NC(=O)[C@@H]2CCCN2C(=O)[C@@H]2CCCN2C1=O

Result:
["7.10 to 8.00", "7.10 to 8.00"]
